- TARGET_DESC: Nitric oxide synthase 1 (Rattus norvegicus) (UniProt P29476)
- Sequence (P29476 whole entry): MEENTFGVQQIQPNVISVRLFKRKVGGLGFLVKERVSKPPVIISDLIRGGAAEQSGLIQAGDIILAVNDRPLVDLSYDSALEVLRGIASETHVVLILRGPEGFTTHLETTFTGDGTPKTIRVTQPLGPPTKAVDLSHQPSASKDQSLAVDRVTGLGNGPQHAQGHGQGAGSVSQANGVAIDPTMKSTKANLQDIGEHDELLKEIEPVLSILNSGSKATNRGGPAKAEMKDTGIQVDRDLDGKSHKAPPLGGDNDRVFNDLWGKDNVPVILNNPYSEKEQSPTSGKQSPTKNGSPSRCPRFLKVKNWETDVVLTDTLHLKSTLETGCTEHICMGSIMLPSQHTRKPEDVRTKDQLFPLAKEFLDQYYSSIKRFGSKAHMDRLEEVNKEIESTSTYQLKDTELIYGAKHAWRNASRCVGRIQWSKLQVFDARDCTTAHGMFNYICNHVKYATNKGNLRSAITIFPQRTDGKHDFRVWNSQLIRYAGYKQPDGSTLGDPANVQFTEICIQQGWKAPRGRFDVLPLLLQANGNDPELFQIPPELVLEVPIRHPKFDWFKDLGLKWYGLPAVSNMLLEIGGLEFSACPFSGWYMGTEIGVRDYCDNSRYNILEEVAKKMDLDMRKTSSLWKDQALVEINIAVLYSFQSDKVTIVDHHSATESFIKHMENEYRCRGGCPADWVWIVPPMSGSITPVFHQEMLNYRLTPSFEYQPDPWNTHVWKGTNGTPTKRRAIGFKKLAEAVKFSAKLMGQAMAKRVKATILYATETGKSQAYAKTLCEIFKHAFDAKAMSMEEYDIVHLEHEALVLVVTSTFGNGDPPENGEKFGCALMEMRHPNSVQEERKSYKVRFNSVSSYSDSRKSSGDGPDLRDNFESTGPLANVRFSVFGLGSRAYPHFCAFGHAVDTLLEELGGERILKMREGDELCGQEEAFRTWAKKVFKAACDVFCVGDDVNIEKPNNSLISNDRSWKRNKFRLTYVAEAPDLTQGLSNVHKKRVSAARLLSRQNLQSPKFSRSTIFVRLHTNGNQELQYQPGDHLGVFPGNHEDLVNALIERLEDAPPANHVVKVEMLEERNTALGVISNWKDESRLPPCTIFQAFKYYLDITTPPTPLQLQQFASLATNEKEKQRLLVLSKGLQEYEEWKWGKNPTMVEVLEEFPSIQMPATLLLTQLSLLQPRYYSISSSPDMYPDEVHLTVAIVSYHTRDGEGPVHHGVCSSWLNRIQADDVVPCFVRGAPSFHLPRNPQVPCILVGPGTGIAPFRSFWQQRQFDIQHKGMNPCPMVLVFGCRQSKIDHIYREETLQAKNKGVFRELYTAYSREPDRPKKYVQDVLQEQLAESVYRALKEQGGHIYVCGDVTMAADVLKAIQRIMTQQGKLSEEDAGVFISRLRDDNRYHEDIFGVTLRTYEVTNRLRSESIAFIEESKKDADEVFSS
- METHOD_NOTES: Neuronal subtype of Neuronal nitric oxide synthase (nNOS) activity tested on Rat Striatal neurones at the concentration of 10e-11 (M)
The entries below are paired with their reported nNOS activity.
For clarity, give the value followed by its unit.

INPUT: What does the data say about its nNOS activity? Entry: CCCC(=O)NC(CC(=O)c1cccc(OC)c1)C(=O)O (stereo unspecified)
OUTPUT: 99.9%

###

The entries below are paired with their reported nNOS activity.
- TARGET_DESC: Nitric oxide synthase 1 (Rattus norvegicus)
- METHOD_NOTES: Neuronal subtype of Neuronal nitric oxide synthase (nNOS) activity tested on Rat Striatal neurones at the concentration of 10e-5 (M)
All answers are understood in %, so give the number only.

In [3]: df
Out[3]:
                                   compound  readout_number
0  CCCC(=O)NC(CC(=O)c1cc(OC)ccc1N)C(=O)O (stereo unspecified)            67.4

INPUT: // fetch Nitric oxide synthase 1 (Rattus norvegicus) nNOS activity for CCCC(=O)NC(CC(=O)c1cccc(OC)c1)C(=O)O (stereo unspecified)
OUTPUT: 99.7

INPUT: Would you kindly repeat that for COc1ccc(N)c(C(=O)CC(NC(C)=O)C(=O)O)c1 (stereo unspecified) ?
OUTPUT: 64

INPUT: Would you kindly repeat that for COc1ccc(N(C)C)c(C(=O)CC(NC(C)=O)C(=O)O)c1 (stereo unspecified) ?
OUTPUT: 101

INPUT: Would you kindly repeat that for COc1cccc(C(=O)CC(NC(C)=O)C(=O)O)c1 (stereo unspecified) ?
OUTPUT: 103

INPUT: Would you kindly repeat that for COc1ccc(NCc2ccccc2)c(C(=O)CC(NC(C)=O)C(=O)O)c1 (stereo unspecified) ?
OUTPUT: 98.2

###

- TARGET_DESC: Nitric oxide synthase 1 (Rattus norvegicus) (UniProt P29476)
- METHOD_NOTES: Neuronal subtype of Neuronal nitric oxide synthase (nNOS) activity tested on Rat Striatal neurones at the concentration of 10e-9 (M)
QUANTITY_NAME: nNOS activity (%)
All answers are understood in %, so give the number only.

                                   compound  quantity_name  unit_abbreviation  readout_number
0  CCCC(=O)NC(CC(=O)c1cc(OC)ccc1N)C(=O)O (stereo unspecified)  nNOS activity                  %            82.1
1  COc1ccc(N(C)C)c(C(=O)CC(NC(C)=O)C(=O)O)c1 (stereo unspecified)  nNOS activity                  %            99.9

INPUT: What does the data say about its nNOS activity? Entry: COc1ccc(NCc2ccccc2)c(C(=O)CC(NC(C)=O)C(=O)O)c1 (stereo unspecified)
OUTPUT: 101

INPUT: Would you kindly repeat that for COc1cccc(C(=O)CC(NC(C)=O)C(=O)O)c1 (stereo unspecified) ?
OUTPUT: 100

INPUT: Would you kindly repeat that for CCCC(=O)NC(CC(=O)c1cccc(OC)c1)C(=O)O (stereo unspecified) ?
OUTPUT: 101

INPUT: Would you kindly repeat that for COc1ccc(N)c(C(=O)CC(NC(C)=O)C(=O)O)c1 (stereo unspecified) ?
OUTPUT: 73.4
